system: shADAM9-His (His-tagged soluble human ADAM9) (human) (UniProt Q13443)
assay_notes: BIACORE SPR; antibody captured, huADAM9-His as analyte
observation_type: koff (s⁻¹)
One number for each entry, in s⁻¹.

hMAB-A (2I.2) (antibody, V domains shown) VH: EVQLVESGGGLVKPGGSLRLSCAASGFTFSSYWMHWVRQAPGKGLEWVGEIIPIFGHTNYNEKFKSRFTISLDNSKNTLYLQMGSLRAEDTAVYYCARGGYYYYPRQGFLDYWGQGTTVTVSS VL: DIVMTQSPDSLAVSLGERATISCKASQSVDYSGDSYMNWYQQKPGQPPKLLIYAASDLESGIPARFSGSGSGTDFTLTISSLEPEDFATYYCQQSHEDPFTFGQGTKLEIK | 0.00023

# context switch: different binder, same koff
query: Give the measured koff of hMAB-A (2.2) (antibody, V domains shown) VH: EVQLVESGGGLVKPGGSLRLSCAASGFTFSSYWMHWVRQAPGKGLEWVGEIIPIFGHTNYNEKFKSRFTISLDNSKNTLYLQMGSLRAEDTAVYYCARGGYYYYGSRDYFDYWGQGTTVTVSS VL: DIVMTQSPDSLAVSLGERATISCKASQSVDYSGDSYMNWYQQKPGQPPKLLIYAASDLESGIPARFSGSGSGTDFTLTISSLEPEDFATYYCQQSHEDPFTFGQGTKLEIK .
result: 0.00055
